target_desc: 3',5'-cyclic-AMP phosphodiesterase 4B (Homo sapiens, UniProt Q07343)
Sequence (Q07343 whole entry): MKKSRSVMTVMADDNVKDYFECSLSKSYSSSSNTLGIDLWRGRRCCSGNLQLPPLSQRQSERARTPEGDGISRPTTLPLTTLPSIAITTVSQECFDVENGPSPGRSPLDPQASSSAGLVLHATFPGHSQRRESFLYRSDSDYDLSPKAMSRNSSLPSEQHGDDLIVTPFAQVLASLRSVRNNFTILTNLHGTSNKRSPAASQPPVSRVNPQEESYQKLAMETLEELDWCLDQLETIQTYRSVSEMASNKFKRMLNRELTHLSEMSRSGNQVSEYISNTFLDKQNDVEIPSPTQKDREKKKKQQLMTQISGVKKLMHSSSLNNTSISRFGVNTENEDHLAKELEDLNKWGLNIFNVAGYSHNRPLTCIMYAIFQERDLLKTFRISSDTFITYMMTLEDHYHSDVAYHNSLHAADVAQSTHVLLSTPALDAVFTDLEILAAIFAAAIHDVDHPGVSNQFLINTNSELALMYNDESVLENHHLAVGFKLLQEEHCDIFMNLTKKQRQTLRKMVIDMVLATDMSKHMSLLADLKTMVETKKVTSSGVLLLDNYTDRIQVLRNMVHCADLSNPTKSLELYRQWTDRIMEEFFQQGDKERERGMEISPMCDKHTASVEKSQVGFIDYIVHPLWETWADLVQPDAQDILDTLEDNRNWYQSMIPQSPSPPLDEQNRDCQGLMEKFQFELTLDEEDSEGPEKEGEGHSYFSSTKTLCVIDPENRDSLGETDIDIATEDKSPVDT
Recorded IC50, one value per entry.

input_smiles	IC50 / nM
COc1ccc(-c2nc(C(=O)NCc3cccc(F)c3)c([C@H](C)N)o2)c2ccc(C(F)(F)F)nc12	0.3
COc1ccc(-c2nc(C(=O)NCc3ccccc3F)c([C@H](C)N)o2)c2ccc(C(F)(F)F)nc12	0.3
COc1ccc(-c2nc(C(=O)NCc3ccc(Cl)cc3F)c([C@H](C)N)o2)c2ccc(C(F)(F)F)nc12	0.7
COc1ccc(-c2nc(C(=O)NCc3cccc(F)c3)c(CN)o2)c2ccc(C(F)(F)F)nc12	1.8
COc1ccc(-c2nc(C(=O)NCc3c(F)cccc3F)c(CN)o2)c2ccc(C(F)(F)F)nc12	0.46
COc1ccccc1CNC(=O)c1nc(-c2ccc(OC)c3nc(C(F)(F)F)ccc23)oc1CN	0.5
COc1ccc(-c2nc(C(=O)N[C@H](CO)c3ccccc3)c([C@@H](C)N)o2)c2ccc(C(F)(F)F)nc12	8.4
COc1ccc(-c2nc(C(=O)NCc3ccc(Cl)cc3)c([C@H](C)N)o2)c2ccc(C(F)(F)F)nc12	0.35

----------
assay_procedure: Cmax in rat at 10 mg/kg, po
Type: ADME, organism-based
Set-up: dose 10 mg/kg, route oral
test_conditions: in vivo

input_smiles	Cmax [nM]
COc1ccc(-c2nc(C(=O)NCc3ccc(F)cc3F)c([C@H](C)N)o2)c2ccc(C(F)(F)F)nc12	960

----------
Recorded IC50, one value per entry.
target_desc: Dual 3',5'-cyclic-AMP and -GMP phosphodiesterase 11A (Homo sapiens)
Sequence (Q9HCR9 whole entry): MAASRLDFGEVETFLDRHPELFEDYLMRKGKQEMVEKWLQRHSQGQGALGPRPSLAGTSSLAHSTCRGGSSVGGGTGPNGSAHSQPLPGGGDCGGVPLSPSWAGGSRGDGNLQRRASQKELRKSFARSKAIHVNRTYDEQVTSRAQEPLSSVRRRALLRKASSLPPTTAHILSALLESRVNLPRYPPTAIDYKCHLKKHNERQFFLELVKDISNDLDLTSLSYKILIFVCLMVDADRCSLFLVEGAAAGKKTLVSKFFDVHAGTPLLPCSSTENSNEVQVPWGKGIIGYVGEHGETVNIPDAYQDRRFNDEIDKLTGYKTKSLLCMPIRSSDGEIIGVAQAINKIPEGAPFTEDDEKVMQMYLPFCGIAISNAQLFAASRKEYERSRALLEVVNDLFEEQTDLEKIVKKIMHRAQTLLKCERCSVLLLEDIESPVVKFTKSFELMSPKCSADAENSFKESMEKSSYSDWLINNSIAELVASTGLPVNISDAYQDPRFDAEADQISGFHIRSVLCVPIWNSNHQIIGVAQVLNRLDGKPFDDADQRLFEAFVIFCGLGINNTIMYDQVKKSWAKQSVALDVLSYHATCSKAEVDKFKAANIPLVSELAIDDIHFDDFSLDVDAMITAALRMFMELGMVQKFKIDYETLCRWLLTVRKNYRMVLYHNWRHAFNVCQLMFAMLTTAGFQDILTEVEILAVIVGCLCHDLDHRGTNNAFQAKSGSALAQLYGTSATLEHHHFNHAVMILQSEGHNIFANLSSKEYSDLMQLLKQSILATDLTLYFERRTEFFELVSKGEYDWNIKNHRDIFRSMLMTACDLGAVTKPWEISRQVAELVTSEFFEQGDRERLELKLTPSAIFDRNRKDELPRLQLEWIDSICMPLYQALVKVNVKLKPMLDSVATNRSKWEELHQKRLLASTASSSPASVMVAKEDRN
readout: IC50 (nM)

input_smiles	readout_unit	value_observed
COc1ccc(-c2nc(C(=O)NCc3cccc(F)c3)c(CN)o2)c2ccc(C(F)(F)F)nc12	nM	3900
COc1ccc(-c2nc(C(=O)NCc3c(F)cccc3Cl)c(CN)o2)c2ccc(C(F)(F)F)nc12	nM	1300
COc1ccc(-c2nc(C(=O)NCc3ccc(F)cc3)c(CN)o2)c2ccc(C(F)(F)F)nc12	nM	2700
COc1ccc(-c2nc(C(=O)NCc3ccc(F)c(F)c3)c([C@H](C)N)o2)c2ccc(C(F)(F)F)nc12	nM	2000
COc1ccc(-c2nc(C(=O)NCc3ccc(F)cc3F)c(CN)o2)c2ccc(C(F)(F)F)nc12	nM	2200
COc1ccc(-c2nc(C(=O)NCc3ccc(Cl)cc3Cl)c([C@H](C)N)o2)c2ccc(C(F)(F)F)nc12	nM	1800
COc1ccc(-c2nc(C(=O)NCc3c(F)cccc3F)c([C@H](C)N)o2)c2ccc(C(F)(F)F)nc12	nM	1400
COc1ccc(-c2nc(C(=O)NCc3ccc(Cl)cc3F)c([C@H](C)N)o2)c2ccc(C(F)(F)F)nc12	nM	1100
COc1ccc(-c2nc(C(=O)NCc3cccc(F)c3)c([C@H](C)N)o2)c2ccc(C(F)(F)F)nc12	nM	1400
COc1ccc(-c2nc(C(=O)NCc3ccc(Cl)cc3F)c(CN)o2)c2ccc(C(F)(F)F)nc12	nM	2700

----------
target_desc: 3',5'-cyclic-AMP phosphodiesterase 4D (Homo sapiens, UniProt Q08499)
Sequence (Q08499 whole entry): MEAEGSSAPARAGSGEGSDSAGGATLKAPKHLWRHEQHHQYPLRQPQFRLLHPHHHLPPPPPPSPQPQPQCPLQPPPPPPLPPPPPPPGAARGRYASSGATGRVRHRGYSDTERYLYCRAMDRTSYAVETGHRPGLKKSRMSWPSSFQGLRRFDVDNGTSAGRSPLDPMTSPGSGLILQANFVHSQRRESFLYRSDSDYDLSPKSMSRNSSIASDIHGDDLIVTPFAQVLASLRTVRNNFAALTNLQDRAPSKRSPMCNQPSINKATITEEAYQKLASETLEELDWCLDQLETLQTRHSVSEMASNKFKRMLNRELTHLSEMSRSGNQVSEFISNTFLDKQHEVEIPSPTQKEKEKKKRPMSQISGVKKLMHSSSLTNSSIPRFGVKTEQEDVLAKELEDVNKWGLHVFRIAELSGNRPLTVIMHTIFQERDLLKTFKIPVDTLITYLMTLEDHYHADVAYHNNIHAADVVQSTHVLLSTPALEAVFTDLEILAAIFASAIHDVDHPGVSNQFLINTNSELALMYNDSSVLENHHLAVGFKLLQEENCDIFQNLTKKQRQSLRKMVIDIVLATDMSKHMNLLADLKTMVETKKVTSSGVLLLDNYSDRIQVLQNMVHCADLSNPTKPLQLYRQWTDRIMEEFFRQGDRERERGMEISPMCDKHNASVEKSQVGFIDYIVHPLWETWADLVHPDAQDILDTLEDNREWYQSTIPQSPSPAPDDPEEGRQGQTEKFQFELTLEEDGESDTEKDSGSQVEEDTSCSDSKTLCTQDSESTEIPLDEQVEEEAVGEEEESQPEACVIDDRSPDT
pIC50: −log10 of the molar value.
readout: pIC50

input_smiles	readout	value_observed
COc1ccc(-c2nc(C(=O)NCc3ccc(F)cc3F)c(CN)o2)c2ccc(C(F)(F)F)nc12	pIC50	9.15
